Target: TRPV1 (Rattus norvegicus, UniProt O35433)
Construct: expressed in transfected cells; host or cells: Xenopus laevis oocytes injected with cRNA
Sequence (O35433 whole entry): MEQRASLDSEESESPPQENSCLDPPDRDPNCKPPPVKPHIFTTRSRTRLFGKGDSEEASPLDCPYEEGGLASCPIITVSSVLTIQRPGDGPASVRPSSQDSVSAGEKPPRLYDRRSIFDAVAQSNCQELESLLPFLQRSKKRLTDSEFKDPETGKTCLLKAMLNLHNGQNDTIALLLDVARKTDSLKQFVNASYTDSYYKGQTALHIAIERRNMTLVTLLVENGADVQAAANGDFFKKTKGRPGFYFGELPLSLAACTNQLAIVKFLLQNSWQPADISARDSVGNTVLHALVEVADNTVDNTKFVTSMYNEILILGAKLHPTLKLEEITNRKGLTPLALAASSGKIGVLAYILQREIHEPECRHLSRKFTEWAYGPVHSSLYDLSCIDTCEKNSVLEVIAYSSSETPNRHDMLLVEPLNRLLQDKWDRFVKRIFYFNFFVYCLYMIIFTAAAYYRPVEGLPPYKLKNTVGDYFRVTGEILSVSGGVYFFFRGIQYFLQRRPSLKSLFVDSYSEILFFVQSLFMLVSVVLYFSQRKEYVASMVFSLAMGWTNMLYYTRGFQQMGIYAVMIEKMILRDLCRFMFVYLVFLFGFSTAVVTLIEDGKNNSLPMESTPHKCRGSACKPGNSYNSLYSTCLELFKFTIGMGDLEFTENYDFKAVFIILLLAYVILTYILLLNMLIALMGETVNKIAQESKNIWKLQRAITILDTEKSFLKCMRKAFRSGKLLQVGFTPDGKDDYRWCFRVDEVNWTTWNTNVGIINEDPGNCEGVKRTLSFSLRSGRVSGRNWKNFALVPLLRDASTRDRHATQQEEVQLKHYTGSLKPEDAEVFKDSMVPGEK
Test: cell-based
Conditions: co-applied with capsaicin (2 μM); −90 mV; ND96 pH 7.4; 18–22 °C; mean ± standard error, n ≥ 3; read-out: IC50, inhibition of capsaicin-induced TRPV1 current
Bridges are numbered along the chain shown (N, C = ends). Where no end group is shown, it is not given here.
Test Readout: pIC50
// field semantics: pIC50 = negative decimal log of concentration (mol/L)

Lab note: measured pIC50 of RGICSEPKVVGPCTAYFRRFYFDSETGKCTPFIYGGCEGNGNNFETLRACRAICRA (disulfide 4-54, 13-37, 29-50 (inferred)) [rHCRG21] was 5.16

* * *

Molecular target: trypsin
Assay: Trypsin inhibition (Dixon method, BAPNA substrate)
Format: biochemical
Details: Dixon method; BAPNA substrate, 133 and 65 mM; enzyme 215 nM; peptide 0 up to 3.2 mM; three parallel experiments
Bridges are numbered along the chain shown (N, C = ends). Where no end group is shown, it is not given here.
Test Readout: pKi
pKi is defined as minus the log10 of a concentration measured in mol/L.

Summary: RGICSEPKVVGPCTAYFRRFYFDSETGKCTPFIYGGCEGNGNNFETLRACRAICRA (disulfide 4-54, 13-37, 29-50 (inferred)) [rHCRG21] , trypsin, pKi = 6.70

* * *

Target: α-chymotrypsin (Bos taurus, UniProt P00766)
Test: α-Chymotrypsin inhibition (Dixon method, BTEE substrate)
Assay type: biochemical
Conditions: 133 and 65 mM, enzyme 215 nM, peptide 0 up to 3.2 mM, three parallel experiments
Method: The trypsin/α-chymotrypsin inhibitory activity of the peptide was tested through the standard procedure using N-α-benzoyl-D,L-arginine p-nitroanilide hydrochloride (BAPNA) and ethyl ester of N-benzoyl-L-tyrosine (BTEE) as a substrates, respectively. […] The constants were calculated based on the results of three parallel experiments. […]
Bridges are numbered along the chain shown (N, C = ends). Where no end group is shown, it is not given here.
Test Readout: pKi
Scale for pKi: -log10 of concentration given in mol/L; no unit attached.

α-chymotrypsin (Bos taurus, UniProt P00766) assay, sequence RGICSEPKVVGPCTAYFRRFYFDSETGKCTPFIYGGCEGNGNNFETLRACRAICRA (disulfide 4-54, 13-37, 29-50 (inferred)) [rHCRG21] , recorded pKi = 6.15
